Hey, just so you know, these numbers are from patent US6635786B2.

# measurement_target: human PARG (Homo sapiens)
# Construct: human PARG from amino acid 378 to 976; GST (glutathione-S-transferase, pGEX-4T1) (N)
# Sequence (Q86W56 378-976): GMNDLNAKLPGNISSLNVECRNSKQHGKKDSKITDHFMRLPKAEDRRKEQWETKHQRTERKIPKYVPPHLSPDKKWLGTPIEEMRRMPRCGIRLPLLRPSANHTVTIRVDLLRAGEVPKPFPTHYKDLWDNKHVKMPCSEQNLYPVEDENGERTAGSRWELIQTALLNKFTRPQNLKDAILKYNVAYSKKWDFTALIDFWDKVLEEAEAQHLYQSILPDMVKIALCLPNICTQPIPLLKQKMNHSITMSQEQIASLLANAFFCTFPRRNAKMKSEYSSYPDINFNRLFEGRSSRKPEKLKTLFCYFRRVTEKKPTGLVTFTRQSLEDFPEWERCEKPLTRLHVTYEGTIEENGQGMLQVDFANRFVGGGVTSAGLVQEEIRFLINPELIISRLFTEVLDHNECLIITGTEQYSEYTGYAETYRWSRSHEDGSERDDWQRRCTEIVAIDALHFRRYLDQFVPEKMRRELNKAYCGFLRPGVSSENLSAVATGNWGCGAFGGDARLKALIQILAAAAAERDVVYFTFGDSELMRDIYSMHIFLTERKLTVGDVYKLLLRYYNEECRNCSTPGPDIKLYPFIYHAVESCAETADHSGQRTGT
# test_method_notes: PARG enzymatic assay
# details: recombinant GST-fused human PARG (aa 378-976); 3H-labeled poly-(ADP-ribose) substrate; 23° C., 10 min
pIC50: −log10 of the molar value.

structure: O=C(NCCCc1ccccc1)c1cccc2c1S(=O)(=O)c1c(cccc1C(=O)NCCCc1ccccc1)O2
measurement_target: human PARG (Homo sapiens)
pIC50: 4.00

structure: O=C(NCCOc1ccccc1)c1ccc2c(c1)-c1ccc(C(=O)NCCOc3ccccc3)c3cccc-2c13
measurement_target: human PARG (Homo sapiens)
pIC50: 4.54

structure: O=C(NCCN1CCCC1)c1ccc2c(c1)-c1ccc(C(=O)NCCN3CCCC3)c3cccc-2c13
measurement_target: human PARG (Homo sapiens)
pIC50: 4.54

structure: COc1cccc(CCNC(=O)c2ccc3c(c2)-c2ccc(C(=O)NCCc4cccc(OC)c4)c4cccc-3c24)c1
measurement_target: human PARG (Homo sapiens)
pIC50: 4.34

structure: O=C(CCN1CCN(c2ccc(F)cc2)CC1)c1ccc2c(c1)Cc1cc(C(=O)CCN3CCN(c4ccc(F)cc4)CC3)ccc1O2
measurement_target: human PARG (Homo sapiens)
pIC50: 5.54

structure: O=C(NCCCN1CCOCC1)c1ccc2c(c1)-c1ccc(C(=O)NCCCN3CCOCC3)c3cccc-2c13
measurement_target: human PARG (Homo sapiens)
pIC50: 4.00

structure: O=C(NCCc1ccccc1)c1cccc(C(=O)c2cccc(C(=O)NCCc3ccccc3)c2)c1
measurement_target: human PARG (Homo sapiens)
pIC50: 4.18

structure: O=C(NCCN1CCCCC1)c1ccc2c(c1)-c1ccc(C(=O)NCCN3CCCCC3)c3cccc-2c13
measurement_target: human PARG (Homo sapiens)
pIC50: 4.24

structure: O=C(NCc1cccnc1)c1ccc2c(c1)-c1ccc(C(=O)NCc3cccnc3)c3cccc-2c13
measurement_target: human PARG (Homo sapiens)
pIC50: 4.00

structure: O=C(NCc1cccc2ccccc12)c1ccc2c(c1)C(Cl)(Cl)c1cc(C(=O)NCc3cccc4ccccc34)ccc1-2
measurement_target: human PARG (Homo sapiens)
pIC50: 4.32

structure: O=C(OCCCc1ccccc1)c1ccc2c(c1)C(Cl)(Cl)c1cc(C(=O)OCCCc3ccccc3)ccc1-2
measurement_target: human PARG (Homo sapiens)
pIC50: 4.95

structure: O=C(NCCCc1ccccc1)c1ccc2c(c1)C(=O)c1cc(C(=O)NCCCc3ccccc3)ccc1-2
measurement_target: human PARG (Homo sapiens)
pIC50: 5.77

structure: COc1ccc(CNC(=O)c2ccc3c(c2)-c2ccc(C(=O)NCc4ccc(OC)c(OC)c4)c4cccc-3c24)cc1OC
measurement_target: human PARG (Homo sapiens)
pIC50: 4.95

structure: O=C(c1cccc2c1S(=O)(=O)c1c(cccc1C(=O)N1CCN(c3ccc(F)cc3)CC1)O2)N1CCN(c2ccc(F)cc2)CC1
measurement_target: human PARG (Homo sapiens)
pIC50: 5.24

structure: O=C(NCc1ccccc1)c1ccc(C(=O)c2ccc(C(=O)NCc3ccccc3)cc2)cc1
measurement_target: human PARG (Homo sapiens)
pIC50: 4.12
